Values from ChEMBL document CHEMBL6115028

# Test system: Influenza A virus
# assay-procedure: Antiviral activity against Influenza A virus A/H1N1 infected in MDCK cells reduction in virus induced cytopathic effect measured after 3 days by CPE assay
# Assay type: functional, organism-based
# protocol-conditions: 72 h
observed-property: pEC50
Numbers only, as −log10 of the molar value.

IN: If you can, please state the reported pEC50 value of COc1ccc(NC(=O)CSc2nc(Cc3cccc4ccccc34)c(C)c(=O)[nH]2)cc1 .
OUT: 5.05

----------
# Test system: Human immunodeficiency virus 1
# assay-procedure: Antiviral activity against […] infected in human MT4 cells assessed as reduction in cytopathic effect measured after 4 days by MTT assay
# Type: functional, organism-based
# protocol-conditions: Human immunodeficiency virus 1, IIIB, MT4, 96 h
For each record, write down the corresponding pEC50.
Numbers only, as −log10 of the molar value.

molecule	pEC50
Cc1c(C(F)c2c(F)cccc2F)nc(N(C)C)[nH]c1=O (stereo unspecified)	5.55
C=C(c1nc(N(C)C)[nH]c(=O)c1C)c1c(F)cccc1F	4.36
Cc1c(C(Br)c2c(F)cccc2F)nc(N(C)C)[nH]c1=O (stereo unspecified)	4.37

Your task in this section: give pEC50 for each listed record.
1. Cc1c(C(C)c2c(F)cccc2F)nc(N(C)C)[nH]c1=O (racemic)
2. Cc1c(C(=O)c2c(F)cccc2F)nc(N(C)C)[nH]c1=O

OUT:
1: 6.15; 2: 4.03

----------
# Tested on: Human immunodeficiency virus 1
# assay-procedure: Antiviral activity against wild type HIV-1 NL4-3 infected in human MT4 cells assessed as reduction in viral replication measured for 72 hrs by ELISA analysis
# Format: functional, organism-based
# protocol-conditions: Human immunodeficiency virus 1, NL4-3, MT4, 72 h
observed-property: pEC50
Answers are plain numbers, as −log10 of the molar value.

For orientation, consider the following solved cases.
compound	observed-property	numeric-value
Cc1c(C(C)c2c(F)cccc2F)nc(SCc2ccc(C#N)cc2)[nH]c1=O (stereo not given)	pEC50	8.15
COc1ccc(CSc2nc(C(C)c3c(Cl)cccc3Cl)c(C)c(=O)[nH]2)cc1 (stereo not given)	pEC50	9.00
CCN(C)c1nc(C(C)c2c(F)cccc2F)c(C)c(=O)[nH]1 (stereo not given)	pEC50	8.52
CCc1c(C(C)c2c(F)cccc2F)nc(SC/C=C/c2ccc(OC)cc2)[nH]c1=O (stereo not given)	pEC50	8.70
Cc1c(C(C)c2c(F)cccc2F)nc(SCc2ccc([N+](=O)[O-])cc2)[nH]c1=O (stereo not given)	pEC50	8.52

Your task in this section: give pEC50 for each listed record.
1. COc1ccc(/C=C/CSc2nc(C(C)c3c(F)cccc3F)c(C)c(=O)[nH]2)cc1 (stereo not given)
2. CCCN(C)c1nc(C(C)c2c(F)cccc2F)c(C)c(=O)[nH]1 (stereo not given)
3. CSc1nc(N)c(C)c(C(=O)c2ccc(F)cc2)n1
4. COc1ccc(CSc2nc(C(C)c3c(F)cccc3F)c(C)c(=O)[nH]2)cc1 (stereo not given)
5. CC(c1cc(=O)[nH]c(N(C)C)n1)c1c(F)cccc1Cl (stereo not given)

OUT:
1: 8.70; 2: 8.30; 3: 6.24; 4: 8.70; 5: 8.15

----------
# Tested on: Human immunodeficiency virus 1
# assay-procedure: Antiviral activity against HIV1 IIIB infected in human MT4 cells assessed as reduction in virus-induced cytopathic effect incubated for 4 days by MTT assay
# Format: functional, organism-based
# protocol-conditions: Human immunodeficiency virus 1, IIIB, MT4, 96 h
observed-property: pEC50
Give bare numbers, as −log10 of the molar value.

molecule	assayed-system	numeric-value
CCC(C)Sc1nc(O)cc(Cc2cccc3ccccc23)n1 (stereo not drawn)	Human immunodeficiency virus 1	6.48
CCC(C)Sc1nc(O)cc(Cc2cccc(C)c2)n1 (stereo not drawn)	Human immunodeficiency virus 1	6.22
Oc1cc(Cc2ccccc2)nc(SC2CCCCC2)n1	Human immunodeficiency virus 1	6.10

Your task in this section: give pEC50 for each listed record.
1. Cc1c(O)nc(SCC(C)C)nc1Cc1ccccc1
2. Cc1c(O)nc(SC2CCCC2)nc1Cc1ccccc1
3. Cc1c(O)nc(SC2CCCCC2)nc1Cc1ccccc1
4. Cc1cccc(Cc2nc(SC3CCCC3)nc(O)c2C)c1
5. Cc1ccccc1Cc1nc(SC2CCCCC2)[nH]c(=O)c1C

OUT:
[6.10, 6.10, 6.22, 6.22, 6.22]
